molecular target: T1, HLA-DR molecule DRB4*0101 (human); assay: radioligand inhibition, purified HLA-DR; conditions: remark: other sources report otherwise
T1 chain 1: not shown
T1 chain 2: not shown
recordedMetric: pIC50
In textbook form, pIC50 equals minus log to base ten of the concentration in mol/L.

Kindly note the recorded pIC50 for HNQVRQVPLQRLRIV [Peptide 9019.0034 (Her2/neu.88)] , which is 7.74
